- System: MM.1R
- Experiment Notes: Antiproliferative activity against dexamethasone-resistant human MM.1R cells assessed as reduction in cell viability at 10 uM measured after 72 hrs by XTT assay
- Type: functional, cell-based
Activity calls are given as the source filed them. The calls are words filed in the database; no cut-off is given here.
Observed Property: Activity

>  <Compound Structure>
CCCCCCCCCCCC(=O)O[C@H]1[C@H](O[C@@H]2[C@H]3OC(=O)CCCCCCCCC[C@H](CCCCC)O[C@@H]4O[C@H](C)[C@H](O)[C@H](O)[C@H]4O[C@H](O[C@H]2C)[C@@H]3O)O[C@@H](C)[C@H](O[C@@H]2O[C@@H](C)[C@H](OC(=O)C(C)C)[C@@H](OC(=O)/C=C/c3ccccc3)[C@H]2O)[C@H]1O[C@@H]1O[C@@H](C)[C@H](O)[C@@H](O)[C@H]1O

>  <Observed Property>
Activity

>  <Value>
inactive

$$$$
>  <Compound Structure>
CCCCCCCCCCCCCCCCCCOC(=O)/C=C/c1ccc(O)c(O)c1

>  <Observed Property>
Activity

>  <Value>
inactive

$$$$
>  <Compound Structure>
CCCCCCCCCCCC(=O)O[C@H]1[C@H](O[C@@H]2[C@H]3OC(=O)CCCCCCCCC[C@H](CCCCC)O[C@@H]4O[C@H](C)[C@H](O)[C@H](O)[C@H]4O[C@H](O[C@H]2C)[C@@H]3O)O[C@@H](C)[C@H](O[C@@H]2O[C@@H](C)[C@H](OC(=O)[C@@H](C)CC)[C@@H](OC(=O)/C=C/c3ccccc3)[C@H]2O)[C@H]1O[C@@H]1O[C@@H](C)[C@H](O)[C@@H](O)[C@H]1O

>  <Observed Property>
Activity

>  <Value>
inactive

$$$$

###

- Test system: MM1.S
- Experiment Notes: Antiproliferative activity against dexamethasone-sensitive human MM.1S cells assessed as reduction in cell viability measured after 72 hrs by XTT assay
- Format: functional, cell-based
Observed Property: IC50

>  <Compound Structure>
CCCCCCCCCCCCCCCCCCOC(=O)/C=C/c1ccc(O)c(O)c1

>  <IC50>
> 10 µM

$$$$
>  <Compound Structure>
CCCCCCCCCC(=O)O[C@H]1[C@H](O[C@@H]2[C@H]3OC(=O)CCCCCCCCC[C@H](CCCCC)O[C@@H]4O[C@H](C)[C@H](O)[C@H](O)[C@H]4O[C@H](O[C@H]2C)[C@@H]3O)O[C@@H](C)[C@H](O[C@@H]2O[C@@H](C)[C@H](OC(=O)[C@@H](C)CC)[C@@H](O)[C@H]2O)[C@H]1O[C@@H]1O[C@@H](C)[C@H](O)[C@@H](O)[C@H]1O

>  <IC50>
> 10 µM

$$$$
>  <Compound Structure>
CC(C)C[C@H](NC(=O)[C@H](Cc1ccccc1)NC(=O)c1cnccn1)B(O)O

>  <IC50>
0.0026 µM

$$$$

Quick one: give me IC50 for each item below, same order please.
1. CCCCCCCCCCCC(=O)O[C@H]1[C@H](O[C@@H]2[C@H]3OC(=O)CCCCCCCCC[C@H](CCCCC)O[C@@H]4O[C@H](C)[C@H](O)[C@H](O)[C@H]4O[C@H](O[C@H]2C)[C@@H]3O)O[C@@H](C)[C@H](O[C@@H]2O[C@@H](C)[C@H](OC(=O)CCCCC)[C@@H](O)[C@H]2O)[C@H]1O[C@@H]1O[C@@H](C)[C@H](O)[C@@H](O)[C@H]1O
2. CCCCCCCCCCCCCCCCOC(=O)/C=C/c1ccc(O)c(O)c1

Result:
1: > 10 µM; 2: > 10 µM

Source: ChEMBL document CHEMBL5038643
